Answer each item with its documented pIC50.
# experimental-system: DNA topoisomerase 1 (Homo sapiens, UniProt P11387)
# Sequence (P11387 whole entry): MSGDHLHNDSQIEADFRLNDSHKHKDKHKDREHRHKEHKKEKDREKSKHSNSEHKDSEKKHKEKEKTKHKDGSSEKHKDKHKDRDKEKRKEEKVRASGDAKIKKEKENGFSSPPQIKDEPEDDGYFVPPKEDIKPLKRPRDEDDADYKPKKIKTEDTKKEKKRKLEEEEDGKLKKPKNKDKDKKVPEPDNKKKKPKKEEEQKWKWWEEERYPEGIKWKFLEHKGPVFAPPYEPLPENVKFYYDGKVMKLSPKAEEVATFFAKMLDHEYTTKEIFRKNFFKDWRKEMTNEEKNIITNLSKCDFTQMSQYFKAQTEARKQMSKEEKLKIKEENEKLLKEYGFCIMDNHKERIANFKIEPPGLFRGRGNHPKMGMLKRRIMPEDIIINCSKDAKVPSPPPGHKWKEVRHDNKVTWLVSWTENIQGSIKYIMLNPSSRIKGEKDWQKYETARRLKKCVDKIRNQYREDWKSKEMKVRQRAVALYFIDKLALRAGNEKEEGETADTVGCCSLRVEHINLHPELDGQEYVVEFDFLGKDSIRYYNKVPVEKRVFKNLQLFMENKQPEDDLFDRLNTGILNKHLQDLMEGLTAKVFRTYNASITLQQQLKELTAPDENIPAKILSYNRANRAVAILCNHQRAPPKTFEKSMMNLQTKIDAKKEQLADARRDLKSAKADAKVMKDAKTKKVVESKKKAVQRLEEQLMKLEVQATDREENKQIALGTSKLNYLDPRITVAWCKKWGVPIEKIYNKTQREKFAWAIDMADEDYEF
# measurement-description: Inhibitory activity against DNA topoisomerase-1 obtained from Hela cells
Formally, pIC50 is defined as -log10 of the concentration c, with c in mol/L.

stdin: Query pIC50 on DNA topoisomerase 1 (Homo sapiens, UniProt P11387) for CCCCCC(=O)O[C@H](CC=C(C)C)C1=CC(=O)c2c(O)ccc(O)c2C1=O
stdout: 3.68

stdin: Query pIC50 on DNA topoisomerase 1 (Homo sapiens, UniProt P11387) for C=CCCC(=O)O[C@H](CC=C(C)C)C1=CC(=O)c2c(O)ccc(O)c2C1=O
stdout: 4.40

stdin: Query pIC50 on DNA topoisomerase 1 (Homo sapiens, UniProt P11387) for CC(=O)O[C@H](CC=C(C)C)C1=CC(=O)c2c(O)ccc(O)c2C1=O
stdout: 4.35

stdin: Query pIC50 on DNA topoisomerase 1 (Homo sapiens, UniProt P11387) for CC(C)=CC[C@@H](OC(=O)CCl)C1=CC(=O)c2c(O)ccc(O)c2C1=O
stdout: 3.86

stdin: Query pIC50 on DNA topoisomerase 1 (Homo sapiens, UniProt P11387) for CC/C=C/CC(=O)O[C@H](CC=C(C)C)C1=CC(=O)c2c(O)ccc(O)c2C1=O
stdout: 3.82

stdin: Query pIC50 on DNA topoisomerase 1 (Homo sapiens, UniProt P11387) for CCCCC(=O)O[C@H](CC=C(C)C)C1=CC(=O)c2c(O)ccc(O)c2C1=O
stdout: 3.79

stdin: Query pIC50 on DNA topoisomerase 1 (Homo sapiens, UniProt P11387) for C/C=C/C=C/C(=O)O[C@H](CC=C(C)C)C1=CC(=O)c2c(O)ccc(O)c2C1=O
stdout: 3.89

stdin: Query pIC50 on DNA topoisomerase 1 (Homo sapiens, UniProt P11387) for CC(C)=CC[C@@H](OC(=O)C(Cl)(Cl)Cl)C1=CC(=O)c2c(O)ccc(O)c2C1=O
stdout: 3.94

stdin: Query pIC50 on DNA topoisomerase 1 (Homo sapiens, UniProt P11387) for CC(C)=CC[C@@H](O)C1=CC(=O)c2c(O)ccc(O)c2C1=O
stdout: 3.68

stdin: Query pIC50 on DNA topoisomerase 1 (Homo sapiens, UniProt P11387) for CCC/C=C/C(=O)O[C@H](CC=C(C)C)C1=CC(=O)c2c(O)ccc(O)c2C1=O
stdout: 3.82

stdin: Query pIC50 on DNA topoisomerase 1 (Homo sapiens, UniProt P11387) for CC(C)=CC[C@@H](OC(=O)C=C(C)C)C1=CC(=O)c2c(O)ccc(O)c2C1=O
stdout: 4.11

stdin: Query pIC50 on DNA topoisomerase 1 (Homo sapiens, UniProt P11387) for CC(C)=CC[C@@H](OC(=O)Cc1ccccc1)C1=CC(=O)c2c(O)ccc(O)c2C1=O
stdout: 3.65

stdin: Query pIC50 on DNA topoisomerase 1 (Homo sapiens, UniProt P11387) for C=CCCCCC(=O)O[C@H](CC=C(C)C)C1=CC(=O)c2c(O)ccc(O)c2C1=O
stdout: 3.60

stdin: Query pIC50 on DNA topoisomerase 1 (Homo sapiens, UniProt P11387) for CC(C)=CC[C@@H](OC(=O)C(C)C)C1=CC(=O)c2c(O)ccc(O)c2C1=O
stdout: 4.08

stdin: Query pIC50 on DNA topoisomerase 1 (Homo sapiens, UniProt P11387) for CC(C)=CC[C@@H](OC(=O)c1ccccc1)C1=CC(=O)c2c(O)ccc(O)c2C1=O
stdout: 3.82

stdin: Query pIC50 on DNA topoisomerase 1 (Homo sapiens, UniProt P11387) for CCC(=O)O[C@H](CC=C(C)C)C1=CC(=O)c2c(O)ccc(O)c2C1=O
stdout: 4.36

stdin: Query pIC50 on DNA topoisomerase 1 (Homo sapiens, UniProt P11387) for C=CCC/C=C/C(=O)O[C@H](CC=C(C)C)C1=CC(=O)c2c(O)ccc(O)c2C1=O
stdout: 3.90

stdin: Query pIC50 on DNA topoisomerase 1 (Homo sapiens, UniProt P11387) for CCCC(=O)O[C@H](CC=C(C)C)C1=CC(=O)c2c(O)ccc(O)c2C1=O
stdout: 3.84

stdin: Query pIC50 on DNA topoisomerase 1 (Homo sapiens, UniProt P11387) for CC/C=C/C(=O)O[C@H](CC=C(C)C)C1=CC(=O)c2c(O)ccc(O)c2C1=O
stdout: 4.10

stdin: Query pIC50 on DNA topoisomerase 1 (Homo sapiens, UniProt P11387) for CCCCCCC(=O)O[C@H](CC=C(C)C)C1=CC(=O)c2c(O)ccc(O)c2C1=O
stdout: 3.20
